# experimental.details: self-splicing fitness, log relative to wild type (ln ratio); higher = more splicing; Tetrahymena group I intron in knt gene, E. coli kanamycin selection, DiMSum; sequences stand for … in CUCUCU…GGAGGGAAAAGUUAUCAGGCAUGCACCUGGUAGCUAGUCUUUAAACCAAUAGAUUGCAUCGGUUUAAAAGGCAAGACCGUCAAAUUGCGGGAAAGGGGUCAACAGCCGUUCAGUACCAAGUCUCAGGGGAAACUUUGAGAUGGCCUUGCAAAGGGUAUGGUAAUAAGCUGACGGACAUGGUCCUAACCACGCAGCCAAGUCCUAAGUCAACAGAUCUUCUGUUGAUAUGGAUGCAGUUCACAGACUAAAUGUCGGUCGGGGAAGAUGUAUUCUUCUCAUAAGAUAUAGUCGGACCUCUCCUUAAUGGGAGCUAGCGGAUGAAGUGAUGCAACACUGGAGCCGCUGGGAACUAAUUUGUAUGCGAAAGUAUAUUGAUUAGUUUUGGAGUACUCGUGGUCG;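 also: selection with 25 µg/mL kanamycin versus none on LB agar overnight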
# test.settings: 30 °C
Measured self-splicing fitness (ln) values are reported for all entries that follow.
Please reply with the number alone, leaving off any unit.

{"entry.sequence": "CAUAAGCAAUAUUACGAGGG", "self-splicing fitness (ln)": -2.96}
{"entry.sequence": "UCGCAGCAAUAUUACGACUC", "self-splicing fitness (ln)": -3.5}
{"entry.sequence": "CGGUAGCAAUAUUACGCCAU", "self-splicing fitness (ln)": -1.58}
{"entry.sequence": "GUGGAGCAAUAUUACGCCUU", "self-splicing fitness (ln)": -2.3}
{"entry.sequence": "UUCAAGCAAUAUUACGAGCG", "self-splicing fitness (ln)": -1.3}

# sequence `CAUUAGCAAUAUUACGUUUU` ; its self-splicing fitness (ln) = -4

# sequence `UCUAAGCAAUAUUACGGGGU` ; its self-splicing fitness (ln) = -2.9

# sequence `CUCUAGCAAUAUUACGCGGC` ; its self-splicing fitness (ln) = -2.81
